Data origin: patent US9981963B2

- Test system: JJN-3 cells
- Assay remarks: Biological Assay C: antiproliferative activity on JJN-3 cells (CellTiter-Glo)
- Format: cell-based
- Cond: Homo sapiens, 72 hr of treatment, averaged values
pEC50: −log10 of the molar value.
Lab note: compare pEC50 against 6. Equal or greater, write true. Smaller, write false.

Input: API: above_or_equal(metric=pEC50, cutoff=6) for item [2H]c1n[nH]c([2H])c1-c1cn(C2CCN(C3CC3)CC2)c2cnc(C#CC(O)(C([2H])([2H])[2H])C([2H])([2H])[2H])cc12 [Compound 43]
Output: true

Input: Determine whether measured pEC50 meets or exceeds 6 for CC(C)(O)Cn1cc(-c2cn[nH]c2)c2cc(C#CC(C)(O)c3nccs3)ncc21 (centres unmarked) [Compound 15]
Output: false

Input: Please tell me: is the compound CCn1c(C#N)c(-c2cn[nH]c2)c2cc(C#CC(C)(C)O)ncc21 [Compound 39] at or over 6 in terms of pEC50?
Output: false

Input: Could you tell me if the measured pEC50 of CCn1cc(-c2c[nH]nc2Cl)c2cc(C#CC(C)(C)O)ncc21 [Compound 38] reaches 6 or more?
Output: false
